# credit: PubChem BioAssay AID1159580

Test: chemical genetic growth profiling, strain panel (AID 1159580);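 further: tested at 20 µM; growth read once vehicle control cultures reached saturation at 30 °C; 1 = growth at the plate median or of vehicle wells; lower values mean less growth of the strain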
Details: S. cerevisiae deletion strains, growth OD, locus YGL086W, strain mad1, hits give low values
The campaign covered roughly 5,500 compounds. About 2,000 (36%) were called active. Inconclusive results (about 18%) are left out. Some of the results follow.
Here, each record is paired with measured normalized growth data.

molecule	normalized growth
COc1ccccc1-c1cc(=O)c2c(OC)cccc2o1	0.99
COc1ccccc1-c1cc(=O)c2cccc(OC)c2o1	0.908
O=C(O)c1cc(=O)c(O)c2c(O)c(O)ccc2c1	1.02
COc1ccc(-c2cc(C(F)F)nn2-c2ccc(S(N)(=O)=O)cc2)cc1F	1.03
CC(=O)C1=C(O)C2C3c4c[nH]c5cccc(c45)CC3C(C)(C)N2C1=O (configuration not stated)	1.01
CC12CCCC(O)(C1)C1CC(C)(C)C1CC2 (configuration not stated)	1.02
O=C1OCCN1/N=C\c1ccc([N+](=O)[O-])o1	0.923
CN(Cc1cc(Br)cc(Br)c1N)C1CCCCC1	0.967
O=C1CN(/N=C\c2ccc([N+](=O)[O-])o2)C(=O)N1	0.977
Nc1nccs1	0.953
Nc1c(Br)cc(Br)cc1CNC1CCC(O)CC1 (configuration not stated)	0.996
CC(=O)OC/C=C(C)/C=C/C=C(C)/C=C/C1=C(C)CCCC1(C)C	1
O=C(O)c1cc(=O)c2c(OCC(O)COc3cccc4oc(C(=O)O)cc(=O)c34)cccc2o1	1
O=C(O)c1cc(O)c(O)c(O)c1	1.03
CC[C@@H](C(=O)[C@@H](C)[C@@H](O)[C@H](C)[C@@H]1O[C@@H]([C@@H](CC)C(=O)O)CC[C@@H]1C)[C@H]1OC2(C=C[C@@H](O)[C@]3(CC[C@@](C)([C@H]4CC[C@](O)(CC)[C@H](C)O4)O3)O2)[C@H](C)C[C@@H]1C (some centres not stated)	0.863
COc1cc(C(=O)O)cc(OC)c1O	0.978
CC1CC2C(C(O)CC3(C)C2CCC3(O)C(=O)COC(=O)CCC(=O)O)C2(C)C=CC(=O)C=C12 (configuration not stated)	1
CN(C)CCCO[C@H]1[C@@H](C(O)CO)OC2OC(C)(C)O[C@@H]21 (some centres not stated)	0.926
CC1(C)CC2C1CCC1(C)OC2(C)CCC1O (configuration not stated)	1.02
Nc1ccc(S(=O)(=O)Nc2nccs2)cc1	1.02
O=C1O[C@@H](CO)[C@H](O)[C@@H](O)[C@@H]1O	0.983
O=C1N=C(O)CN1/N=C\c1ccc(-c2ccc([N+](=O)[O-])cc2)o1	1.02

====

Experiment: chemical genetic growth profiling, strain panel (AID 1159580);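 further: tested at 20 µM; growth read once vehicle control cultures reached saturation at 30 °C; 1 = growth at the plate median or of vehicle wells; lower values mean less growth of the strain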
Details: S. cerevisiae strains, growth OD, strain wild type, hits give low values
Among all 5,500 compounds or so, about 2,000 (36%) were called active. Another 18% or so got no clear call; they are omitted. This is one part of the list.
measured.endpoint: normalized growth

> print(dat)
                                   compound  measured.endpoint  result.number
1  CC1=C(/C=C/C(C)=C/C=C/C(C)=C/CO)C(C)(C)CCC1  normalized growth          0.979
2  C#C[C@]1(O)CCC2C3CCc4cc(O)ccc4C3CC[C@@]21C (stereo partly specified)  normalized growth          0.999
3  CC1=C(/C=C/C(C)=C/C=C/C(C)=C/C(=O)O)C(C)(C)CCC1  normalized growth              1
4          O=C(O)CCC(=O)c1ccc(-c2ccccc2)cc1  normalized growth           0.99
5                        CCCSP(=O)(OCC)SCCC  normalized growth           1.02
6         CC(=O)c1ccc(-c2ccc(C(C)=O)cc2)cc1  normalized growth           1.03
